molecular target: UniProtKB P0A0K8; experiment: S. aureus (SAU) GyrB ATPase inhibition, malachite green phosphate detection (E. coli GyrA + S. aureus GyrB); assay type: biochemical; conditions: compound concentration of 1.0 μM unless otherwise noted; average value where assay was carried out more than once; read-out: S. aureus (SAU) GyrB ATPase % Inhibition
Sequence (P0A0K8 whole entry): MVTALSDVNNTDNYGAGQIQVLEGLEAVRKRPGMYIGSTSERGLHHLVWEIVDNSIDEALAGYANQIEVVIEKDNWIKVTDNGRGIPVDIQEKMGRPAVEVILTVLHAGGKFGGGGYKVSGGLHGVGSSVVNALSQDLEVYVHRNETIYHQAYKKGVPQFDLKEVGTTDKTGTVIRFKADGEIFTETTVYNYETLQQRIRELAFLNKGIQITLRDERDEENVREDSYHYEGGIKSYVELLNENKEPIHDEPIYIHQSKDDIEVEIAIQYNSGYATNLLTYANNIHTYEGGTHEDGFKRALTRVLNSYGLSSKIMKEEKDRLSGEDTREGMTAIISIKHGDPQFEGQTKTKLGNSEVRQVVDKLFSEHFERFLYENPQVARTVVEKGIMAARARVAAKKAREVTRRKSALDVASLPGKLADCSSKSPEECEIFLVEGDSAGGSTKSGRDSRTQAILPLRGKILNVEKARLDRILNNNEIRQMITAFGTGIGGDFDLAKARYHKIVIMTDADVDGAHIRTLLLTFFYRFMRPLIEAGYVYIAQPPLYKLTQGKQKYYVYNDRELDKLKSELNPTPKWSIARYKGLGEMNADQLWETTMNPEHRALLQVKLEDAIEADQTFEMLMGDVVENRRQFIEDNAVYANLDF
Sequence (P0AES4 whole entry, further chain): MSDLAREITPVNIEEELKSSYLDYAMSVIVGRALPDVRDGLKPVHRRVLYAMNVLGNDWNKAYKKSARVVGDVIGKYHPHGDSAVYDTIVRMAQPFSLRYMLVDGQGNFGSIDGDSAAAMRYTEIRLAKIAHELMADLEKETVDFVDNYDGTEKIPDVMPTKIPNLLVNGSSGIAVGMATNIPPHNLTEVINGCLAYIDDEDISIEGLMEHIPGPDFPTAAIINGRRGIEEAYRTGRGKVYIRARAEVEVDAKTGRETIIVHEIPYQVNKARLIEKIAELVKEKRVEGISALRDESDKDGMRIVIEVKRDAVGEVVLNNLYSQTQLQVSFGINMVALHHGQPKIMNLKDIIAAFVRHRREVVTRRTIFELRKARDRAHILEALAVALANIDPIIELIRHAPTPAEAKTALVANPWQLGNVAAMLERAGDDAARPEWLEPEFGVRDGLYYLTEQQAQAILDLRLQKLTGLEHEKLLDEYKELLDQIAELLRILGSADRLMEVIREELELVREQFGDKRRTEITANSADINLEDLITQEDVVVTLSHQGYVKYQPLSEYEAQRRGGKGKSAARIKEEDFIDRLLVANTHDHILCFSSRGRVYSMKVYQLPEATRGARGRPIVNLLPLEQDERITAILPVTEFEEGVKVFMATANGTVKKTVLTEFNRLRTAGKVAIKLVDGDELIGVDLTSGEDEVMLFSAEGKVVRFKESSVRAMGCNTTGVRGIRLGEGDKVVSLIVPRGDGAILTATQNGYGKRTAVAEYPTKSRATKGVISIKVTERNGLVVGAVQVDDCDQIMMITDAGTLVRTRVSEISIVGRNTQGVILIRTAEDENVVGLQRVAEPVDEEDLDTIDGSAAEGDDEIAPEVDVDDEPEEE
# Lookup of reported inhibition at 1 µM keyed by entry

| smiles string | tested on | inhibition at 1 µM [%] |
| --- | --- | --- |
| CCNC(=O)Nc1cc(-c2nc(C(F)(F)F)cs2)c(-c2cncc(-c3ccn[nH]3)c2)cn1 | UniProtKB P0A0K8 | 120 |
| CCNC(=O)Nc1cc(-c2nc(C3CCCC3)cs2)c(-c2cncc(-c3n[nH]c(=O)o3)c2)cn1 | UniProtKB P0A0K8 | 95 |
| CCNC(=O)Nc1cc(-c2nnc(-c3ccccc3)o2)c(-c2cncc(-c3n[nH]c(=O)o3)c2)cn1 | UniProtKB P0A0K8 | 118 |
| CCNC(=O)Nc1cc(-c2nc(C(F)(F)F)cs2)c(-c2cncc(-c3nnc(OCC)o3)c2)cn1 | UniProtKB P0A0K8 | 100 |
